- target_desc: human CB2 receptors (Homo sapiens (Human))
- Sequence (P34972 whole entry): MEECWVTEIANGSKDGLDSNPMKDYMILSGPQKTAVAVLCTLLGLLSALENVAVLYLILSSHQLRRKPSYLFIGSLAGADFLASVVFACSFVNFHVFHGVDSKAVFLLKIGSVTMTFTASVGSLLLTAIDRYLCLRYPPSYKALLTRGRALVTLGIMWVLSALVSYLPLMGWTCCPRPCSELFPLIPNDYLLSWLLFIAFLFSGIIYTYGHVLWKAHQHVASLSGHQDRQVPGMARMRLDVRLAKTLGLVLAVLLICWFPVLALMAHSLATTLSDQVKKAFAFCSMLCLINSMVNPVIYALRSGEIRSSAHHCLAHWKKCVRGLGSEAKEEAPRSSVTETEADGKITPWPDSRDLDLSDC
- assay_explanation: cAMP assay, CHO cells expressing human CB2 receptors
- Type: cell-based
- experimental_context: CHO cells expressing human CB2, cAMP; read-out: human CB2 EC50
measured_parameter: pEC50
Notebook: values listed as pEC50 are -log10 of the concentration (mol/L).

molecule | target_desc | pEC50
COC(=O)C(C)(C)NC(=O)c1ccc(C2CC2)c(Nc2ccc(Cl)cc2Cl)n1 | human CB2 receptors (Homo sapiens (Human)) | 6.36
CCC(CC)(NC(=O)c1ccc(N(CC(F)(F)F)CC(F)(F)F)c(OCC2CC2)n1)C(=O)OC | human CB2 receptors (Homo sapiens (Human)) | 8.80
CC(C)C[C@H](NC(=O)c1ccc(C2CC2)c(OCC2CC2)n1)C(=O)N(C)C | human CB2 receptors (Homo sapiens (Human)) | 8.85
O=C(NNC1CCS(=O)(=O)C1)c1cccc(Cc2ccc(F)cc2)n1 (centres unmarked) | human CB2 receptors (Homo sapiens (Human)) | 6.24
CC(C)(C)[C@H](NC(=O)c1ccc(N2CC(F)(F)C2)c(OCC2CC2)n1)C(=O)N1CC(F)(F)C1 | human CB2 receptors (Homo sapiens (Human)) | 7.83

Inquiry: Data request, read-out pEC50, for CC(C)C[C@H](C#N)NC(=O)c1ccc(C2CC2)c(OCC2CC2)n1
Reply text: 8.25

Inquiry: Data request, read-out pEC50, for CCOC(=O)C(CC)(CC)NC(=O)c1ccc(N2CC(F)(F)C2)c(OCC2CC2)n1
Reply text: 8.70

Inquiry: Data request, read-out pEC50, for COCCOC[C@H](CC1CC1)NC(=O)c1ccc(N2CC(F)(F)C2)c(OCC2CC2)n1
Reply text: 7.56
